- Test system: HIV-1 IIIB (wild-type)
- Assay protocol: HIV inhibition assay in TZM-bl cells, wild-type
- Assay type: cell-based
- Setup conditions: Human immunodeficiency virus 1, IIIB, Table 3, TZM-bl, ± SEM, minimum 6 replicates, read-out: IC50 (TZM, WT)
pIC50: −log10 of the molar value.
Measure: pIC50

- N#Cc1cccc(S(=O)(=O)n2nc(Nc3c(Cl)cc(Cl)cc3Cl)nc2N)c1: 7.47
- CC(=O)Nc1nc(C)c(S(=O)(=O)n2nc(Nc3cc(Cl)c(Cl)cc3Cl)nc2N)s1: 6.78
- Nc1nc(Nc2ccc(Cl)cc2)nn1S(=O)(=O)c1ccc(F)c(F)c1F: 6.24
- N#Cc1ccc(Nc2nc(N)n(S(=O)(=O)c3c(Cl)nc4sccn34)n2)cc1: 8.75
- N#Cc1ccc(Nc2nc(N)n(S(=O)(=O)c3ccc(C(F)(F)F)nc3)n2)c(Cl)c1: 7.44
- Nc1nc(Nc2ccc(Cl)cc2)nn1S(=O)(=O)c1ccc(Br)s1: 7.82
- Nc1nc(Nc2ccc(Cl)cc2)nn1S(=O)(=O)CCN1C(=O)c2ccccc2C1=O: 7.84
- Cc1nc(C)c(S(=O)(=O)n2nc(Nc3ccc(Cl)cc3)nc2N)s1: 7.36
- Cc1c(S(=O)(=O)n2nc(Nc3ccc(C#N)cc3)nc2N)sc2ccc(Cl)cc12: 7.85
- Cc1cc(S(=O)(=O)n2nc(Nc3ccc(Cl)nc3)nc2N)c(C)cc1Cl: 7.46
- N#Cc1ccc(Nc2nc(N)n(S(=O)(=O)c3cccc4nc(Cl)ccc34)n2)c(Cl)c1: 6.40
- N#C/C=C/c1ccc2c(S(=O)(=O)n3nc(Nc4ccc(CC#N)cc4)nc3N)cccc2c1: 9.59
- Nc1nc(Nc2ccc(Cl)cc2)nn1S(=O)(=O)c1ccc(-c2ccc(F)cc2)cc1: 7.67
- N#CCc1ccc(Nc2nc(N)n(S(=O)(=O)c3cccc4cc(C#N)ccc34)n2)cc1: 9.56
- CC(=O)Nc1nc(C)c(S(=O)(=O)n2nc(Nc3ccc(CC#N)cc3)nc2N)s1: 7.71
- N#C/C=C/c1ccc(Nc2nc(N)n(S(=O)(=O)c3cccc4cc(C#N)ccc34)n2)cc1: 8.82
- Cc1cc(C#N)ccc1Nc1nc(N)n(S(=O)(=O)c2cccc3cc(C#N)ccc23)n1: 7.86
- CC(C)(C)c1ccc(S(=O)(=O)n2nc(Nc3ccc(Cl)cc3)nc2N)cc1: 7.15
- C=CC(=O)N(C)c1ccc(S(=O)(=O)n2nc(Nc3ccc(C#N)cc3)nc2N)cc1: 8.10
- N#C/C=C/c1ccc2c(S(=O)(=O)n3nc(Nc4ccc(C#N)c(Cl)c4)nc3N)cccc2c1: 9.58
- Cn1cnc(S(=O)(=O)n2nc(Nc3ccc(Cl)cc3)nc2N)c1: 7.08
- Nc1nc(Nc2ccc(Cl)cc2)nn1S(=O)(=O)c1cnc(Cl)c(Br)c1: 7.84
- N#CCc1ccc(Nc2nc(N)n(S(=O)(=O)c3cnc(Cl)nc3)n2)cc1: 6.97
- Cc1cc(C)c(Nc2nc(N)n(S(=O)(=O)c3ccc(Br)c(C)c3)n2)c(C)c1: 7.71
- Nc1nc(Nc2ccc(Cl)cc2)nn1S(=O)(=O)c1cc(Cl)sc1Cl: 7.99
- Nc1nc(Nc2ccc(Cl)cc2)nn1S(=O)(=O)c1ccc(Br)cc1F: 7.72
- N#Cc1ccc2c(S(=O)(=O)n3nc(Nc4ccc(C#N)c(C#N)c4)nc3N)cccc2c1: 9.16
- Nc1nc(Nc2ccc(Cl)cc2)nn1S(=O)(=O)c1ccc2cc(Cl)ccc2c1: 8.34
- N#Cc1ccc(Nc2nc(N)n(S(=O)(=O)c3cccc(C#N)c3)n2)cc1: 6.98
- CC(=O)N1CCc2cc(S(=O)(=O)n3nc(Nc4ccc(Cl)cc4)nc3N)ccc21: 7.03
- COc1ccc(Cl)cc1S(=O)(=O)n1nc(Nc2ccc(Cl)cc2)nc1N: 6.75
- Nc1nc(Nc2ccc(Cl)cc2)nn1S(=O)(=O)c1cccc2nonc12: 7.99
- Nc1nc(Nc2ccc(Cl)cc2)nn1S(=O)(=O)c1ccc2ccccc2c1: 8.03
- N#Cc1ccc(Nc2nc(N)n(S(=O)(=O)c3c(Cl)nc4sccn34)n2)cc1C#N: 9.65

----------
- Assay protocol: Caco-2 permeability
- Type: in vitro ADME
- Setup conditions: human, Caco-2, pH 7.4
Measure: efflux ratio at 90 min, 10 μM

* N#C/C=C/c1ccc2c(S(=O)(=O)n3nc(Nc4ccc(C#N)c(Cl)c4)nc3N)cccc2c1 | 1

----------
- Assay protocol: In vivo pharmacokinetics, plasma and brain
- Parameters: species or system Balb/C male mice
- Setup conditions: male, Balb/C, mouse, plasma, po, 250 mg/kg, plasma, 250 mg/kg intragastric, mice group 1
Measure: AUC(0-inf) (ng·h/mL)

• Nc1nc(Nc2ccc(Cl)cc2)nn1S(=O)(=O)c1ccc2ccccc2c1 = 6230
